Biological target: T1, Hsp27 ΔNTD (residues 80–205) (human, UniProt P04792 80-205)
T1 construct: Human Hsp27 (HSPB1) without the N-terminal domain, residues 80–205; Heterogeneous mixture of 3–5 mers; source: E. coli BL21 (DE3), purified (Ni-NTA, size exclusion)
T1 sequence (P04792 80-205, stated change not applied): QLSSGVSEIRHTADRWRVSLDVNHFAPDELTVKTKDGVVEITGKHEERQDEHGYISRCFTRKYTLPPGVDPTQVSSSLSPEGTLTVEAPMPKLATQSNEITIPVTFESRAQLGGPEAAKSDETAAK
Assay: ITC; peptide (1 mM) titrated into a cell with Hsp27 proteins (100 µM); SEC buffer (50 mM sodium phosphate, 100 mM NaCl); 25 °C; one-site binding model
Details: both partners purified
Outcome measure: Kd (µM)

Binder	Outcome measure	Observed
EITIPVTHE (Human Hsp27 (HSPB1) IPV 9-mer with the penultimate phenylalanine swapped for histidine (the residue at this position in the motif of BAG3); also called His-containing IPV peptide; chimeric peptide; source: synthetic peptide, bought: Genescript) [Hsp27 IPV H peptide (EITIPVTHE)]	Kd	11.4
